# System: CEM cells HIV-1 protection, formazan growth assay
# measurement-protocol: NCI AIDS Antiviral Assay
# test-parameters: measured here: growth of uninfected CEM cells
measured-parameter: IC50 (µM)
I only need the number, in µM, no unit after it.

Please review the entries below; each comes with its answer.
Read off the recorded IC50 for `COc1ccc(/C=C/C(=O)c2ccc(OC(=O)/C=C/c3ccccc3)cc2)cc1`
9.12

Read off the recorded IC50 for `Cc1cc(=O)oc2c1ccc1occc(=O)c12`
56.2

Read off the recorded IC50 for `Nc1nc(Cl)cc(OCC2(CO)CCCC2)n1`
110

Read off the recorded IC50 for `Oc1ccc(/C=C/c2cc(O)cc3c2[C@@H](c2cc(O)cc4c2[C@H](c2cc(O)cc5c2[C@@H](c2cc(O)cc(O)c2)[C@H](c2ccc(O)cc2)O5)[C@@H](c2ccc(O)cc2)O4)[C@H](c2ccc(O)cc2)O3)cc1`
15.8

Read off the recorded IC50 for `O=C1C[C@@H]2OC3=C(C(=O)CCC3)[C@@H]2O1`
7.24

In the following, a different compound is considered.
Read off the recorded IC50 for C[C@]12CCc3nonc3C1CC[C@@H]1C2CC[C@@]2(C)C1CC[C@@H]2O (stereo partly drawn)
174
